target system: human S1P4 (Homo sapiens (Human), UniProt O95977)
Sequence (O95977 whole entry): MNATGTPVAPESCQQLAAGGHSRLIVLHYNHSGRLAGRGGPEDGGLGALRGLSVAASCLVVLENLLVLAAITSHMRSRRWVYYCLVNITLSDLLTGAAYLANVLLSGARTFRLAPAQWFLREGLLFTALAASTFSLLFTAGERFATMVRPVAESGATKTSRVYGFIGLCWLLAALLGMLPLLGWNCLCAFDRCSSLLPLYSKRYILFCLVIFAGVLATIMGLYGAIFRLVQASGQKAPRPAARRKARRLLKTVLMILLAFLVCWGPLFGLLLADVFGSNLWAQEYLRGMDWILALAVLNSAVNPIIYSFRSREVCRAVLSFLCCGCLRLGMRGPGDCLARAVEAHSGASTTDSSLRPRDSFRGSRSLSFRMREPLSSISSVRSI
method description: Calcium mobilization (calcium flux) assay, antagonist format, S1P4
run parameters: recombinant CHEM cells expressing human S1P4; FLIPR Calcium 4 dye; stimulated with EC80 of reference agonist
attribute measured: IC50

Form: compound = CC(C)(C)[C@H]1CC[C@H](Oc2cccc3c(CN4CCC(C(=O)O)CC4)cccc23)CC1 ; IC50 = ≤ 250 nM

----------
target system: UniProtKB Q13822
method description: ATX biochemical FRET assay with FS-3 substrate
run parameters: 1.0 μg/mL ATX, 2 μM FS-3, 2 hours at room temperature
Overview of reported IC50 across a group of compounds:

Form: compound = CC(C)(C)[C@H]1CC[C@H](Oc2cccc3cc(CN4CCCC(C(=O)O)CC4)ccc23)CC1 (stereo partly shown) ; IC50 = > 5 µM

Form: compound = O=C(O)C1CCN(Cc2ccc3c(O[C@H]4CC[C@@H](C(F)(F)F)CC4)cccc3c2)CC1 ; IC50 = > 5 µM

Form: compound = C[C@H]1CC[C@H](Oc2cccc3cc(CN4CC(C(=O)O)C4)ccc23)CC1 ; IC50 = > 5 µM

Form: compound = O=C(O)C1CN(Cc2ccc3c(O[C@H]4CC[C@H](C5CCCC5)CC4)cccc3c2)C1 ; IC50 = > 5 µM

Form: compound = CC[C@H]1CC[C@H](Oc2cccc3cc(CN4CC(C(=O)O)C4)ccc23)CC1 ; IC50 = 0.5 to 5 µM

Form: compound = CC[C@H]1CC[C@@H](Oc2cccc3cc(CN4CCC(C(=O)O)CC4)ccc23)CC1 ; IC50 = 0.5 to 5 µM

Form: compound = O=C(O)C1CN(Cc2ccc3c(O[C@H]4CC[C@H](c5ccccc5)CC4)cccc3c2)C1 ; IC50 = > 5 µM

Form: compound = C[C@H]1CC[C@H](Oc2cccc3cc(CN4CCC(C(=O)O)CC4)ccc23)CC1 ; IC50 = 0.5 to 5 µM

Form: compound = CC(C)(C)[C@H]1CC[C@H](Oc2cccc3cc(CN4C5CCCC4CC(C(=O)O)C5)ccc23)CC1 (stereo partly shown) ; IC50 = > 5 µM

Form: compound = CC(C)(C)[C@H]1CC[C@H](Oc2cccc3cc(CN4CC(C(=O)O)C4)ccc23)CC1 ; IC50 = < 0.5 µM
